The reported numbers originate from ChEMBL document CHEMBL1121754.

Experiment: Partition coefficient (logP)
Type: physicochemical
Conditions: octanol/water; read-out: logP
Is logP at least 2? Then 1. If not, -1.

Look over these answered cases.
COMPOUND	CLASS LABEL
COc1ccc(CC(C)N)cc1OC (stereo not drawn)	-1
COc1cc(OC)c(CC(C)N)cc1Br (stereo not drawn)	1

Assess whether reported logP for COc1ccc(OC)c(CC(C)N)c1 (stereo not drawn) sits at 2 or higher.
-1

Can COc1cc(CC(C)N)c(OC)cc1C (stereo not drawn) [DOM] be said to have logP at or above 2?
1

API: above_or_equal(metric=logP, cutoff=2) for item COc1cc(OC)c(SC)cc1CC(C)N (stereo not drawn)
1

Has COc1cc(CC(C)N)c(OC)cc1Br (stereo not drawn) [BROLAMFETAMINE] a recorded logP greater than or equal to 2?
1

Given COc1ccc(CC(C)N)c(OC)c1 (stereo not drawn) , state whether its logP is at least 2.
-1

Does logP meet or surpass 2 for COc1cc(OC)c(CC(C)N)cc1C (stereo not drawn) ?
1

Does COc1cc(CC(C)N)cc(OC)c1OC (stereo not drawn) have a reported logP of at least 2?
-1

logP >= 2 for CC(N)Cc1ccc2c(c1)OCO2 (stereo not drawn) [TENAMFETAMINE] ?
-1

Dear colleague, could you confirm whether COc1cc(SC)c(OC)cc1CC(C)N (stereo not drawn) has logP at or above 2?
1

Assess whether reported logP for COc1cc(OC)c(OC)cc1CC(C)N (stereo not drawn) sits at 2 or higher.
-1
